B1: TRIM63 (parent)
chain: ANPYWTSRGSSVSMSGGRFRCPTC

Variants of: B1
Test: protein stability index of a GFP-peptide fusion (GPS, HEK-293T) (PSI 1-6); higher = more stable;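 also: lentivirally expressed fusions sorted by FACS into six bins by GFP to DsRed ratio, PSI derived from sequencing read proportions per bin multiplied by bin number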
Conditions: c terminus: a fixed tail appended
Property Label: protein stability index
One number for each entry.

# Mutation Label, Property Label, Numeric Readout
rows = [
    ("S13D", "protein stability index", 2.06),
    ("S11H", "protein stability index", 2.68),
    ("P22N", "protein stability index", 2.5),
    ("R20A", "protein stability index", 2.38),
    ("S15F", "protein stability index", 2.61),
    ("F19C", "protein stability index", 3.67),
    ("N2S", "protein stability index", 1.89),
    ("R18M", "protein stability index", 2.49),
    ("G17Q", "protein stability index", 2.07),
    ("G9V", "protein stability index", 1.91),
]

Pending variant:
Check the records and state protein stability index for P22S
2.19

Data provenance: the supplement of paper PMC10567573
